This collection of values is drawn from PubChem BioAssay AID1822.

System: M18 aspartyl aminopeptidase (Plasmodium falciparum 3D7)
Test: inhibition of P. falciparum M18 aminopeptidase – biochemical, QFRET, recombinant enzyme, primary screen (AID 1822);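 further: 0% = plate median of test compound wells and 100% = 2 mM ZnCl2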
Details: recombinant PfM18AAP, H-Glu-NHMec fluorogenic cleavage; at 7.35 µM; active compounds read high
Out of some 290,000 compounds screened, about 3,500 (1.2%) were called active. The full list was thinned out, with actives kept by preference.
# inhibition values compiled below
assayReadout: inhibition (%)

compound | observed
Cc1ccc(NNC(=O)c2c(F)cccc2Cl)cc1Cl | 5.54
CC(C)(C)NC(=O)C(c1ccncc1)N(C(=O)CNC(=O)c1ccco1)c1ccc2c(c1)OCO2 (configuration not stated) | 35
COc1cccc(C2Nc3cccc4cccc(c34)N2)c1 | -7.19
Cc1ccc(C2Nc3cccc4cccc(c34)N2)cc1 | 19.1
CCOC(=O)c1c(N)sc2c1CCCC2=O | 13.3
Oc1ccc(C2Nc3cccc4cccc(c34)N2)cc1 | 31.7
Cc1ccc(N(C(=O)CNC(=O)c2ccco2)C(C(=O)NC2CCCC2)c2ccncc2)cc1 (configuration not stated) | 0.63

* * *

Test system: M18 aspartyl aminopeptidase (Plasmodium falciparum 3D7)
Experiment: inhibition of P. falciparum M18 aminopeptidase – biochemical, QFRET, recombinant enzyme, primary screen (AID 1822);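 further: 0% = plate median of test compound wells and 100% = 2 mM ZnCl2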
Settings: recombinant PfM18AAP, H-Glu-NHMec fluorogenic cleavage; at 7.35 µM; active compounds read high
Hit rate of the full screen: of about 290,000 compounds, about 3,500 (1.2%) were called active. This is one part of a sample in which actives are shown more often than they occur.
# inhibition values compiled below
assayReadout: inhibition (%)

structure | observed
CC(=O)c1cnc(Nc2nc(C)c3cc(C)ccc3n2)nc1C | 1.6
CCCCN(Cc1ccccc1)C(=O)C1CCN(Cc2sccc2C)CC1 | 10.9
Cc1cc(-c2ccc(/C=N/n3cnnc3)o2)c([N+](=O)[O-])cc1C | 44.5
ONC(=Nc1ccc(Cl)cc1)c1ccccc1Cl | 18.2

* * *

# inhibition values compiled below
Tested on: M18 aspartyl aminopeptidase (Plasmodium falciparum 3D7)
Assay: inhibition of P. falciparum M18 aminopeptidase – biochemical, QFRET, recombinant enzyme, primary screen (AID 1822);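 further: 0% = plate median of test compound wells and 100% = 2 mM ZnCl2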
Details: recombinant PfM18AAP, H-Glu-NHMec fluorogenic cleavage; at 7.35 µM; active compounds read high
Out of some 290,000 compounds screened, about 3,500 (1.2%) were called active. This is one part of a sample in which actives are shown more often than they occur.

compound | inhibition [%]
COc1cccc(NC(=S)NCCCN2CCOCC2)c1 | -6.09
CC1CCN(S(=O)(=O)c2ccc3[nH]c(=O)ccc3c2)CC1 | -0.17
O=C(O)CCn1c(Cc2ccccc2)nc2ccccc21 | -1.96
COc1cccc(C(=O)NNS(=O)(=O)c2ccc(F)cc2)c1 | 10.3
Cc1nnc(SCC(=O)Nn2cnnc2)s1 | 41.6
C=CCc1cccc(/C=N/NC(=O)COc2ccc(-n3cnnn3)cc2)c1O | 11.8
Oc1ccc(/C=N/Nc2ccc(C(F)(F)F)cn2)cc1O | 34.4
O=C(Oc1ccc(Br)cc1C(=S)N1CCOCC1)c1cccc([N+](=O)[O-])c1 | 36.5
Cc1cc(C)n(-c2ccc(NC(=O)C3CCCCN3C(=O)c3cccs3)cc2)n1 (stereo not drawn) | 10.7
O=C(CN1C(=O)CSC1=O)N1CCCC(Nc2ccc(F)cc2)C1 (stereo not drawn) | -12.5
CN(C)S(=O)(=O)c1ccc(N2CCCC2)c(C(=O)Nc2cccc(F)c2)c1 | -1.31
CC(C)CCN(C(=O)c1csnn1)C(C(=O)NC1CCCC1)c1ccccc1 (stereo not drawn) | 5.8
O=C(Nc1ccccc1)Nc1ccc(C(F)(F)F)cn1 | -2.42
O=C(O)c1cccc2c1C(=O)N(C1CCCC1)C2 | -3.09
Oc1c(Cl)cc(Cl)cc1/C=N/c1ncn[nH]1 | 45.4
CC1CN(C(=O)CCC(=O)NCCCN2CCC(Cc3ccccc3)CC2)c2cc(Cl)ccc2O1 (stereo not drawn) | -5.3
C=CCn1c(SCc2ccccc2)nc2c1c(=O)[nH]c(=O)n2C | -4.12
COc1cccc(NC(=O)Nc2nnc(N3CCCCC3C)s2)c1 (stereo not drawn) | 0.21
C=CCC1(CC=C)CCCN1C(=O)c1cc(COc2ccc(-n3cncn3)cc2)on1 | -14.1
COc1cc(Br)cc(/C=N/c2ncn[nH]2)c1O | 61.7
CCC(C)C(=O)Nc1ccccc1N1CCN(c2ccc(F)cc2)CC1 (stereo not drawn) | 4
Cc1ccc(OCc2n[nH]c(=S)n2-c2ccc(C)cc2)cc1 | 14.1
O=C(CC(n1cncn1)C(Cl)(Cl)Cl)c1ccc([N+](=O)[O-])cc1 (stereo not drawn) | 55.3
COc1ccc(OCc2n[nH]c(=S)n2N)cc1 | 32.5
Cc1cc(NC(=O)CCC(=O)N(CC(=O)NCC2CCCO2)c2ccccc2)no1 (stereo not drawn) | -2.56
O=C(O)CCn1c(O)c(C=C2N=c3ccccc3=N2)sc1=S | 37.6
CC(C)CN(CC(C)C)CC(O)CN(c1ccccc1)S(=O)(=O)c1ccccc1[N+](=O)[O-] (stereo not drawn) | 2.89
O=C(Oc1ccccc1C(=S)N1CCCCC1)c1cc([N+](=O)[O-])cc([N+](=O)[O-])c1 | 13.9
COc1ccc(OC)c(/C(C)=N\NC(=O)c2cc3cc(Cl)ccc3n2C)c1 | 3.86
COc1ccc(CNC(=O)CN(C(=O)c2csnn2)c2cnc3ccccc3c2)cc1 | 3.77
COc1ccc(C(=O)Nc2c(N)nc(SCC(=O)Nc3ccc(C(C)=O)cc3)[nH]c2=O)cc1 | 7.68
Nc1nc(SCC(=O)Nc2cc(C(F)(F)F)ccc2Cl)[nH]c(=O)c1NC(=O)c1ccco1 | 30.4
CCOc1cccc(/C=N/NC(=S)NCCN2CCOCC2)c1O | 37.6
